biological target: V2 receptor (Rattus norvegicus, UniProt Q00788); construct: Using rat kidney plasma membrane preparations; from tissue; host or cells: rat kidney plasma membrane; assay: biochemical; conditions: rat kidney plasma membrane, [3H]-Arg-vasopressin, 4° C., pH 8.0, read-out: IC50 in V2 receptor binding assay
Sequence (Q00788 whole entry): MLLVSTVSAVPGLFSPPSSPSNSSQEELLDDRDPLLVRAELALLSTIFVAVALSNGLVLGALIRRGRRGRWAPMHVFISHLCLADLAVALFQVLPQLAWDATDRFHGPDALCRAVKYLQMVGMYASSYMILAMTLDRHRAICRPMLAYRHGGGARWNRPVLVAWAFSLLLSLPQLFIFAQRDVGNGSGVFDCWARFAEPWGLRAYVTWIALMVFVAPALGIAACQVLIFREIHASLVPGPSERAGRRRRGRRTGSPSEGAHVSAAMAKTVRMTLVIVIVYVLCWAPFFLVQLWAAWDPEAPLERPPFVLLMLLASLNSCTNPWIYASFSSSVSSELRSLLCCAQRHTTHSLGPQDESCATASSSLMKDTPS
measured-endpoint: IC50 (nM)

{"columns": ["molecule", "measured-endpoint", "endpoint-value"],
 "data": [
  ["Cc1ccccc1C(=O)Nc1ccc(C(=O)N2CCC(O)Cc3cc(Cl)ccc32)cn1 (stereo not shown) [Compound of Ex. 148]", "IC50", 17],
  ["CNC1CCCN(C(=O)c2ccc(NC(=O)c3ccccc3C)nc2)c2ccc(Cl)cc21 (stereo not shown) [Compound of Ex. 79]", "IC50", 3.7],
  ["CCNC(=O)CC1CCCN(C(=O)c2ccc(NC(=O)c3ccccc3Cl)nc2)c2ccc(Cl)cc21 (stereo not shown) [Compound of Ex. 112]", "IC50", 3],
  ["Cc1ccccc1C(=O)Nc1ccc(C(=O)N2CCCC(OC(=O)CN(C)C)c3cc(Cl)ccc32)cn1 (stereo not shown) [Compound of Ex. 189]", "IC50", 12],
  ["CCN(CC)CCN(C)C(=O)CC1CCCN(C(=O)c2ccc(NC(=O)c3ccccc3C)nc2)c2ccc(Cl)cc21 (stereo not shown) [Compound of Ex. 105]", "IC50", 3],
  ["Cc1ccccc1C(=O)Nc1ccc(C(=O)N2CCCC(CC(N)=O)c3cc(Cl)ccc32)cn1 (stereo not shown) [Compound of Ex. 40]", "IC50", 9],
  ["NC(=O)COC1CCCN(C(=O)c2ccc(NC(=O)c3ccccc3Cl)nc2)c2ccc(Cl)cc21 (stereo not shown) [Compound of Ex. 171]", "IC50", 3.1]
]}
